Biological target: Neurotensin receptor type 1 (Mus musculus) (UniProt O88319)
Sequence (O88319 whole entry): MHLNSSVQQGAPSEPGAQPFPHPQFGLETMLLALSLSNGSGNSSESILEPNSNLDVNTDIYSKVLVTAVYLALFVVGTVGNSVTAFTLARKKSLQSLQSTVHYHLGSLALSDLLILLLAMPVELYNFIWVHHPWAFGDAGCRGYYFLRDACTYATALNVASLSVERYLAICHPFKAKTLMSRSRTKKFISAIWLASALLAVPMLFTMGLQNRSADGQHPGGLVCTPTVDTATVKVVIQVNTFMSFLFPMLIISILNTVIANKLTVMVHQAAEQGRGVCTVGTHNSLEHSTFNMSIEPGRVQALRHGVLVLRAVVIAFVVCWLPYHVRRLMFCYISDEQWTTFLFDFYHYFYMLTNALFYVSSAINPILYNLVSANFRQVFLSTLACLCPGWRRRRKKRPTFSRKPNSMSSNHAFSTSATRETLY
Assay: Tested for change in binding affinity to Neurotensin (NT) receptor in neonatal mouse whole brain (minus cerebellum)
Format: tissue-based
Peptide text beside a SMILES is read from it.
Metric name: Ki ratio

Compound	Ki ratio
CC[C@@H](C)[C@H](NC(=O)[C@H](Cc1ccc(O)cc1)NC(=O)[C@@H]1CCCN1C(=O)[C@H](CCCN=C(N)N)NC(=O)[C@H](C)N)C(=O)N[C@@H](CC(C)C)C(=O)O	14
CC[C@@H](C)[C@H](NC(=O)[C@H](C)NC(=O)[C@@H]1CCCN1C(=O)[C@H](CCCN=C(N)N)NC(=O)[C@@H](N)CCCN=C(N)N)C(=O)N[C@@H](CC(C)C)C(=O)O	6100
CC(C)C[C@H](NC(=O)[C@H](C)NC(=O)[C@H](Cc1ccc(O)cc1)NC(=O)[C@@H]1CCCN1C(=O)[C@H](CCCN=C(N)N)NC(=O)[C@@H](N)CCCN=C(N)N)C(=O)O (H-RRPYAL-OH)	250
CC[C@@H](C)[C@H](NC(=O)[C@H](C)NC(=O)[C@@H]1CCCN1C(=O)[C@H](CCCN=C(N)N)NC(=O)[C@@H](N)CCCN=C(N)N)C(=O)N[C@@H](C)C(=O)O	220000
CC[C@@H](C)[C@H](NC(=O)[C@H](Cc1ccc(O)cc1)NC(=O)[C@@H]1CCCN1C(=O)[C@H](C)NC(=O)[C@@H](N)CCCN=C(N)N)C(=O)N[C@@H](CC(C)C)C(=O)O	120

a = CC[C@@H](C)[C@H](NC(=O)[C@H](Cc1ccc(O)cc1)NC(=O)[C@@H]1CCCN1C(=O)[C@H](CCCN=C(N)N)NC(=O)[C@@H](N)CCCN=C(N)N)C(=O)N[C@@H](C)C(=O)O
b = CC[C@@H](C)[C@H](NC(=O)[C@H](Cc1ccc(O)cc1)NC(=O)[C@H](C)NC(=O)[C@H](CCCN=C(N)N)NC(=O)[C@@H](N)CCCN=C(N)N)C(=O)N[C@@H](CC(C)C)C(=O)O
Inquiry: Hi there! Just curious which has the higher Ki ratio between a and b . Reply with the label of the item you choose.
Reply text: a

###

Biological target: Neurotensin receptor type 1 (Mus musculus, UniProt O88319)
Sequence (O88319 whole entry): as above
Assay: Inhibition of specific binding of [125I]-Tyr3-NT(1-13) to NT receptors in neonatal mouse whole brain (minus cerebellum)
pKi: −log10 of the molar value. Peptide text beside a SMILES is read from it.
Metric name: pKi

Worked cases, pKi given:
Compound	Target or system	Measured
CC[C@H](C)[C@H](NC(=O)[C@H](Cc1ccc(O)cc1)NC(=O)[C@@H]1CCCN1C(=O)[C@H](CCCN=C(N)N)NC(=O)[C@H](CCCN=C(N)N)NC(=O)[C@@H]1CCCN1C(=O)[C@H](CCCCN)NC(=O)[C@H](CC(N)=O)NC(=O)[C@H](CCC(=O)O)NC(=O)[C@H](Cc1ccc(O)cc1)NC(C)=O)C(=O)N[C@@H](CC(C)C)C(=O)O (Ac-YENKPRRPYIL-OH)	Neurotensin receptor type 1 (Mus musculus, UniProt O88319)	9.68
CC[C@H](C)[C@H](NC(=O)[C@H](Cc1ccc(O)cc1)NC(=O)[C@@H]1CCCN1C(=O)[C@H](CCCNC(=N)N)NC(=O)[C@H](CCCNC(=N)N)NC(=O)[C@@H]1CCCN1C(=O)[C@H](CCCCN)NC(=O)[C@H](CC(N)=O)NC(=O)[C@H](CCC(=O)O)NC(=O)[C@H](Cc1ccc(O)cc1)NC(=O)[C@H](CC(C)C)NC(C)=O)C(=O)N[C@@H](CC(C)C)C(=O)O	Neurotensin receptor type 1 (Mus musculus, UniProt O88319)	9.96

1 = CC[C@H](C)[C@H](NC(=O)[C@H](Cc1ccc(O)cc1)NC(=O)[C@@H]1CCCN1C(=O)[C@H](CCCNC(=N)N)NC(=O)[C@H](C)N)C(=O)N[C@@H](CC(C)C)C(=O)O
2 = CC[C@H](C)[C@H](NC(=O)[C@H](Cc1ccc(O)cc1)NC(=O)[C@@H]1CCCN1C(=O)[C@H](C)NC(=O)[C@@H](N)CCCN=C(N)N)C(=O)N[C@@H](CC(C)C)C(=O)O
3 = CC[C@H](C)[C@H](NC(=O)[C@H](C)NC(=O)[C@@H]1CCCN1C(=O)[C@H](CCCN=C(N)N)NC(=O)[C@@H](N)CCCN=C(N)N)C(=O)N[C@@H](C)C(=O)O
Inquiry: Returns the items ordered by pKi, from maximum to minimum. // list labels; follow requested order
Reply text: 1, 2, 3
(1: 9.60, 2: 8.68, 3: 5.41)
